Each entry below carries its recorded IC50.
Biological target: PIKFYVE (Homo sapiens, UniProt Q9Y2I7)
Sequence (Q9Y2I7 whole entry): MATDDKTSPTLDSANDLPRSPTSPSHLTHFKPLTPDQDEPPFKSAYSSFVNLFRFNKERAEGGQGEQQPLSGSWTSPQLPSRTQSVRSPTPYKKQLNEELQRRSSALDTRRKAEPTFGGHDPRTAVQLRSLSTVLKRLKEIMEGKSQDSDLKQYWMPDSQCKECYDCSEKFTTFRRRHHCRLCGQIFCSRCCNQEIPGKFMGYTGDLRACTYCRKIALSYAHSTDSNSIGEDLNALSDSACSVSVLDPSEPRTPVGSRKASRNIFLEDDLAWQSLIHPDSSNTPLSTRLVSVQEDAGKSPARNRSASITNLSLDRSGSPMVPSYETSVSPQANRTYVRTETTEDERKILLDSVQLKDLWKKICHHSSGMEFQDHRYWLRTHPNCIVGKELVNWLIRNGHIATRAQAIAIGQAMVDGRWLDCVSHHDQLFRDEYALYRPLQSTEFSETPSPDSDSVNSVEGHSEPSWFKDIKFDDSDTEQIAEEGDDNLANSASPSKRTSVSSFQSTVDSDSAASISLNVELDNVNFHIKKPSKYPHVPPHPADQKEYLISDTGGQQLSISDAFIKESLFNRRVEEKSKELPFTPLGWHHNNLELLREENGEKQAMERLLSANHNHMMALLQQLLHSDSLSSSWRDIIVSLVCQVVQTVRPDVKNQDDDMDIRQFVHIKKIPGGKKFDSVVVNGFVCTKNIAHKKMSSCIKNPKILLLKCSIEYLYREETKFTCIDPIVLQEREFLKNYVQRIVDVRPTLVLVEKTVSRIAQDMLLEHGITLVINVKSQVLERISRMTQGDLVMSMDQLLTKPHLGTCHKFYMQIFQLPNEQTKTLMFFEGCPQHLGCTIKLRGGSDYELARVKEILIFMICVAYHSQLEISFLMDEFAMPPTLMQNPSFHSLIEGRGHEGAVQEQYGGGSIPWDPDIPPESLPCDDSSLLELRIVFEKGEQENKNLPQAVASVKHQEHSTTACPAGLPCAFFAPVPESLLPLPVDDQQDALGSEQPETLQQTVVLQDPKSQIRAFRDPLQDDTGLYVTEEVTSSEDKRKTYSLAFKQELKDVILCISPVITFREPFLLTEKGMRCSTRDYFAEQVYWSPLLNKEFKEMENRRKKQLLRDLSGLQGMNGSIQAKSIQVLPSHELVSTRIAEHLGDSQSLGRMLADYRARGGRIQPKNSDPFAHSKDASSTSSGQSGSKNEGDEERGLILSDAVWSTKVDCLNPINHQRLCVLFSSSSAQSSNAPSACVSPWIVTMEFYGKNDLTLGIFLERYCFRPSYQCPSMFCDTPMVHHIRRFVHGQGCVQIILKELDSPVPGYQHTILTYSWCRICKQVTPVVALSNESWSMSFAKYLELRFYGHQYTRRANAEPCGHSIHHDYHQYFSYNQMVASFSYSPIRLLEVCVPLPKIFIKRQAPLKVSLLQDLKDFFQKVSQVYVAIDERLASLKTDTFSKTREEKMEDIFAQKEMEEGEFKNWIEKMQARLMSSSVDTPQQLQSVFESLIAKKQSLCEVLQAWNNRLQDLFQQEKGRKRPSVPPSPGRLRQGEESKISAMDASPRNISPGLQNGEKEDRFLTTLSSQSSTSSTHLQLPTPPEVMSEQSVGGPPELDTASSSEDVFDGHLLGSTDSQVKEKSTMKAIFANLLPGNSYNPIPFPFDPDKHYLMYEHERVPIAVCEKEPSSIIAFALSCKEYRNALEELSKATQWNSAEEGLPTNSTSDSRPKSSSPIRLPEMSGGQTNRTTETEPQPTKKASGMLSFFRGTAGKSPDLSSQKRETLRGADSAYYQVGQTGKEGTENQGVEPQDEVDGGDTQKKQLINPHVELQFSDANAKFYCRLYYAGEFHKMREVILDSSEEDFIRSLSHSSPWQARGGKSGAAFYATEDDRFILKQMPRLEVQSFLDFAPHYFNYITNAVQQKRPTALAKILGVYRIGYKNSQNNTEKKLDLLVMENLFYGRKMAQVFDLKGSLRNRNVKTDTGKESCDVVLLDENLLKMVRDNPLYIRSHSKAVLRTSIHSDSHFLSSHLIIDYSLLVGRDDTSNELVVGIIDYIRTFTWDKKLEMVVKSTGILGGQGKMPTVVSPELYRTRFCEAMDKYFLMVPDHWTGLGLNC
Experiment: PIKFYVE assay (luciferase ADP-Glo kinase assay, Promega)
Assay type: biochemical
Conditions: Table 2

Recorded IC50, per entry:
Given item Cc1cccc(-c2ccn(-c3cc(N4CC[C@H]5OCC[C@H]54)nc(C(O)CO)n3)n2)c1 (stereo partly drawn) [Compound 48] , the value recorded as its IC50 is < 500 nM

Given item CCOC(=O)c1ccn(-c2cc(N3CCOCC3)nc(OCCc3ccn(C)n3)n2)n1 [Compound 70] , the value recorded as its IC50 is < 50 nM

Given item Cc1cccc(-c2ccn(-c3cc(N4CCOCC4)nc(OC[C@@H](O)c4ccccc4)n3)n2)c1 [Compound 57] , the value recorded as its IC50 is < 5 nM

Given item CN(C)Cc1cc(-c2ccccc2)nn1-c1cc(N2CCOCC2)nc(OCCc2cnn(C)c2)n1 [Compound 75] , the value recorded as its IC50 is < 50 nM

Given item OCC(O)COc1nc(N2CCOCC2)cc(-n2cc3ccccc3n2)n1 (stereo not drawn) [Compound 52] , the value recorded as its IC50 is < 500 nM

Given item COCc1nc(N2CCOCC2)cc(-n2ccc(-c3ccccc3)n2)n1 [Compound 69] , the value recorded as its IC50 is < 50 nM

Given item OCC(O)COc1nc(N2CCOCC2)cc(-n2ncc3ccccc32)n1 (stereo not drawn) [Compound 53] , the value recorded as its IC50 is < 500 nM

Given item Cc1cn(-c2cc(N3CCOCC3)nc(OCCc3cnn(C)c3)n2)nc1-c1ccccc1 [Compound 63] , the value recorded as its IC50 is < 500 nM

Next:
Given item Cc1cccc(-c2ccn(-c3cc(N4CCOCC4)nc(C(F)(F)F)n3)n2)c1 [Compound 82] , the value recorded as its IC50 is < 50 nM
